target: HLA-B*45:01; assay: IEDB peptide-MHC binding, purified MHC/competitive/radioactivity; filed as Kd, often an IC50 or EC50 that approximates it; bounds were set here for any values at or beyond the usual limits of such assays; settings: source organism: Mammarenavirus whitewaterense
Measured Metric: pKd
pKd (log units): -log10 of the concentration in mol/L.

Given SDSVCACGL , state its recorded pKd.
4.97

###

target: HLA-B*07:02; assay: IEDB peptide-MHC binding, purified MHC/direct/fluorescence; filed as Kd, often an IC50 or EC50 that approximates it; bounds were set here for any values at or beyond the usual limits of such assays; conditions: source organism: Shewanella violacea
Measured Metric: Kd

Name the recorded Kd for ETKGKRRLL .
≥ 20 µM
